# measuredTarget: PARP in C41 cells (Homo sapiens (Human), UniProt P09874)
# Sequence (P09874 whole entry): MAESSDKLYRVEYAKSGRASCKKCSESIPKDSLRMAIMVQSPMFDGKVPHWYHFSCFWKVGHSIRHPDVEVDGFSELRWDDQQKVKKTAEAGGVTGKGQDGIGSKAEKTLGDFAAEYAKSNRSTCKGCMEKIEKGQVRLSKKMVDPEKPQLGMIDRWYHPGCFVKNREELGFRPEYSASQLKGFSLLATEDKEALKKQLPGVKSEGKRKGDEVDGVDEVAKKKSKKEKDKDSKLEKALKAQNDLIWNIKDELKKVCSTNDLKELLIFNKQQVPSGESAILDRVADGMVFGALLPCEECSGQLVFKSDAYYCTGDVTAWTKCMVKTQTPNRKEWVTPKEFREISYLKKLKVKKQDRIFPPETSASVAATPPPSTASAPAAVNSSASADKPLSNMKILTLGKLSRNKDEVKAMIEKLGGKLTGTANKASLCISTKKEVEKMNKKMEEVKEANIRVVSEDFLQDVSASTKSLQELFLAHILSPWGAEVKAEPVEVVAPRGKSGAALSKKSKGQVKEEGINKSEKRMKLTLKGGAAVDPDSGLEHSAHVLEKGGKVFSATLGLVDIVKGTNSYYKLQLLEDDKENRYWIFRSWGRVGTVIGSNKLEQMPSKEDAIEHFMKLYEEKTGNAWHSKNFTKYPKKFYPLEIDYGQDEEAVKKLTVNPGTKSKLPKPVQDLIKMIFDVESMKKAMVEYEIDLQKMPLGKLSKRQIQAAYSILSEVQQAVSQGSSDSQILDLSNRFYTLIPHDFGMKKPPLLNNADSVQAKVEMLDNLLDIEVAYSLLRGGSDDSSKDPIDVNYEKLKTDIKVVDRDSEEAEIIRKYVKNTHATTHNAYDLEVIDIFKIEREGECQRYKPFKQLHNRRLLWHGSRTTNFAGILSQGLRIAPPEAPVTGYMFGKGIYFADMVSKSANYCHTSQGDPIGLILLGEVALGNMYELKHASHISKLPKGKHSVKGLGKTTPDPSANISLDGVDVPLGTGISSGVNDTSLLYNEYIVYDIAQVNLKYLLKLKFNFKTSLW
measuredAttribute: Cell EC50 ratio

compound="O=C(c1cc(Cc2n[nH]c(=O)c3c2CCCC3)ccc1F)N1CCN(c2ccc(F)cc2)CC1 [drawing 41]" measuredattribute="Cell EC50 ratio" testvalue=0.8
compound="CC(=O)N1CCN(C(=O)c2cccc(Cc3n[nH]c(=O)c4c3CCCC4)c2)CC1 [drawing 28]" measuredattribute="Cell EC50 ratio" testvalue=6.1
compound=NCC(=O)Nc1cc(Cc2n[nH]c(=O)c3c2CCCC3)ccc1F measuredattribute="Cell EC50 ratio" testvalue=5.8
compound=O=C(Nc1cc(Cc2n[nH]c(=O)c3c2CCCC3)ccc1F)C1CNC1 measuredattribute="Cell EC50 ratio" testvalue=34.4
compound=O=C(CCN1CCCCC1)Nc1cc(Cc2n[nH]c(=O)c3c2CCCC3)ccc1F measuredattribute="Cell EC50 ratio" testvalue=5.6
compound="CN1CCCN(C(=O)c2cc(Cc3n[nH]c(=O)c4c3CCCC4)ccc2F)CC1 [drawing 43]" measuredattribute="Cell EC50 ratio" testvalue=0.6
compound="O=C1CCCN1c1cc(Cc2n[nH]c(=O)c3c2CCCC3)ccc1F [drawing 17]" measuredattribute="Cell EC50 ratio" testvalue=0.85
compound="O=C(Nc1cccc(Cc2n[nH]c(=O)c3c2CCCC3)c1)C1CNC1 [drawing 12]" measuredattribute="Cell EC50 ratio" testvalue=246
